target: SARS-CoV-2 spike (S) protein (SARS-CoV-2, UniProt P0DTC2 14-1208)
measurement_label: koff (s⁻¹)
Numbers only here, please. The scale is s⁻¹.

{"binder": "antibody 387 (antibody, V domains shown) VH: QVQLVESGGGVVQPGRSLRLSCAASGFTFSSYGMHWVRQAPGKGLEWVAVISYDGSNKYYADSVKGRFTISRDNSKNTLYLQMNSLRAEDTAVYYCAKDDTKNYGDLDIDYWGQGTLVTVSS VL: SYELTQPSSVSVSPGQTARITCSGDVLAKKYARWFQQKPGQAPVLVIYKDSERPSGIPERFSGSSSGTTVTLTISGAQVEDEADYYCYSAADNNLGVFGGGTKLTVL", "koff (s⁻¹)": 0.000808}

# input Provide only the value of recorded koff for antibody 338 (antibody, V domains shown) VH: QVQLQESGPGLVKPSETLSLTCAVSGYSISSDYYWGWIRQPPGKGLEWIGSIYHSGSTYYNPSLKSRVTISIDTSKNQFSLKLSSVTAADTAVYYCARDPGNYDILTGIFDYWGQGTLVTVSS VL: QSALTQPASVSGSPGQSITISCTGTSSDVGVYNYVSWYQQHPGKAPKLMIYDVTNRPSGVSNRFSGSKSGNTASLTISGLQAEDEADYYCSSYTSSSTLAVYVFGTGTKVTVL
# output 4.43e-05
